The reader will find reported yeast fitness values listed item by item below.
B1: tRNA (parent)
chain: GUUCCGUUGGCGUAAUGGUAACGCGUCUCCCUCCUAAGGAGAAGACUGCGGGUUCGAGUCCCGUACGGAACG

Variants of: B1
Experiment: yeast fitness relative to wild type (ratio to wild type); higher = fitter; tRNA-Arg(CCU), competitive growth, 37 C, YPD
Fewer inactive variants are shown than the library holds.
I'd appreciate a reply containing only the number, no unit.

residue-codes | yeast fitness
GUUCCGUUGGCGUAAUGGUAACGCGUCUCCCUCCUAAGGAGAAGACUGCGGGUUCGAGUCUCGUACGCAACG [C61U G68C] | 0.68
GUUCUGUUGGCGUAAUGGUAGCGCGUCUCCCUCCUAAGGAGUAGACUGCGGGUGCGAGUCCCGUACGGAACG [C5U A21G A42U U54G] | 0.533
GGUCCGUUCGCGUAAUGGUAACGCGUCUCCCUCCUAAGGAGAAGACUGCGGGUUCGAGUCCCGUACGGAGCG [U2G G9C A70G] | 0.585

Given the variant GUUCCGUUGGCGUAAUGGUAACGCAUCUCCAUCCUAAGGAGAACACUGCGGGUUCGAGUCCCGUACGGAACG [G25A C31A G44C] , what is its reported yeast fitness?
0.597

Given the variant GUUCCGUUGGCGUAAUGGUGACGCGUCUCCCUCCUAAGGCGAAGACUGCGGGUUCGAGUCCCGUACGGAACG [A20G A40C] , what is its reported yeast fitness?
0.803

Given the variant GUUCCGUUGGCGUAAUGGUAACGCGUCUCCCUCCUAAGGAGAAGACUGCGGGUUCGUGUCCCGUACGCAACG [A57U G68C] , what is its reported yeast fitness?
0.652

Given the variant GUUCCGUUGGCGUAAUGGUAACGCGUCUCCCUCCUAUGGAGAAGACUGCGGGUUCGAGUCGCGUACGGAACG [A37U C61G] , what is its reported yeast fitness?
0.529

Given the variant GUUCCGUUGGCGUAAUAGUAGCGCGUCGCCCUCCUAAGGAGAAGACUGCGGGUUCGAGUCCCGUACGGAACG [G17A A21G U28G] , what is its reported yeast fitness?
0.608

Given the variant GUCCCGUUGGCGUAAUGGUAACGCGUCUCCCUCCUCAGGAGAAGACUGCGGGUUCGAGUCCCGUACGGAACG [U3C A36C] , what is its reported yeast fitness?
0.566
